# procedure.details: qHTS assay to identify small molecule agonists of the sonic hedgehog signaling (Shh) pathway (AID 1259368);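 further: NIH/3T3-derived 3T3Gli1-Luc cells carrying a stable Gli1-driven firefly luciferase reporter; nearly all actives have a fitted effect of over 15% in size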
# condition.notes: NIH/3T3 Gli1-Luc reporter, luciferase, 24 h; series mostly up to 92.4 µM
Activity calls are given as the source filed them. The call rests on the fitted dose curve.
test.readout: outcome

Please review the following examples before continuing.
                                chem_smiles  reported_result
0  C#C[C@]1(O)CC[C@H]2[C@@H]3CCC4=CC(=O)CC[C@@H]4[C@H]3CC[C@@]21C         inactive
1                         C#CCN(C)Cc1ccccc1         inactive
2               CC1=C(C)S(=O)(=O)CCS1(=O)=O         inactive
3                          NNc1nncc2ccccc12         inactive
4                                OCCOCCOCCO         inactive

Sure, the documented outcome for COc1ccc(NC(C)=O)cc1N is inactive

Sure, the documented outcome for Cc1ccc2oc(=O)ccc2c1 is inactive

Sure, the documented outcome for C=CCOC(=O)c1ccccc1C(=O)OCC=C is inactive

Sure, the documented outcome for OCCOCCN1CCN(C2=Nc3ccccc3Sc3ccccc32)CC1 is inactive

Sure, the documented outcome for CC(=O)c1ccccc1 is inactive

Sure, the documented outcome for CCCCCC/C(C=O)=C\c1ccccc1 is inactive

Sure, the documented outcome for Oc1cccc2ccccc12 is inactive

Sure, the documented outcome for Fc1ccc(Br)cc1 is inactive

Sure, the documented outcome for O=C(O)c1ccc(C(=O)O)cc1 is inactive

Sure, the documented outcome for CC(C)CC(=O)CC(C)C is inactive

====

# target.entity: Nuclear receptor subfamily 1 group I member 2 (Homo sapiens) (UniProt O75469)
# procedure.details: Human pregnane X receptor (PXR) activation by small molecules, qHTS assay (AID 1346985); further: nearly all actives have a fitted effect of over 40% in size
# condition.notes: DPX-2 HepG2 CYP3A4-luciferase, 24 h; series mostly up to 38.3 µM
Inconclusive results are not listed. Active and inactive are the calls of the source. The call rests on the fitted dose curve; in most records, active means well fitted activation curve with a large enough effect in the repeat runs; inconclusive means weak or mixed curves; inactive means flat fitted curve, though single readings scatter.
Mark one answer only. Choices: active, inactive

Please review the entries below; each comes with its answer.
>>> print(df.to_string())
                                   compound  category_label
0  CCCCC(CC)COC(=O)C(C#N)=C(c1ccccc1)c1ccccc1 (centres undefined)          active
1  O=C(O)[C@H](O)[C@@H](O)[C@H](O)[C@H](O)CO        inactive
2           O=c1[nH]c(=O)n([C@H]2CCCO2)cc1F        inactive

Any idea what this test logged for C=CCNC(N)=S ?
inactive

Any idea what this test logged for CCCCCC(N)=O ?
inactive

Any idea what this test logged for OC[C@H]1O[C@@](CO)(O[C@H]2O[C@H](CO)[C@@H](O)[C@H](O)[C@H]2O)[C@@H](O)[C@@H]1O ?
inactive

Any idea what this test logged for CC(=O)Nc1ccccc1 ?
inactive

Any idea what this test logged for O=c1[nH]c(=O)n([C@H]2C[C@H](O)[C@@H](CO)O2)cc1Br ?
inactive

Any idea what this test logged for CC(=O)Nc1cccc(O)c1 ?
inactive

Any idea what this test logged for CC(c1cc2ccccc2s1)N(O)C(N)=O (centres undefined) ?
inactive

Any idea what this test logged for C#C[C@]1(O)CC[C@H]2[C@@H]3CCC4=CC(=O)CC[C@@H]4[C@H]3CC[C@@]21C ?
inactive

Any idea what this test logged for OCCOCCOCCO ?
inactive

Any idea what this test logged for C#CCN(C)Cc1ccccc1 ?
inactive

Any idea what this test logged for CCN(CC)CCCC(C)Nc1ccnc2cc(Cl)ccc12 (centres undefined) ?
inactive
